Data credit: patent US20150203579A1

Catalogue of binders with associated MFI
target: full length human PD-1 on HEK293/hPD-1 cells (human, UniProt Q15116 25-288); assay: FACS, 100 nM mAb, HEK293/hPD-1 cells;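 also: antibodies incubated with cells for 15-30 min on ice, bound antibody detected through a secondary F(ab′)2 by flow cytometry, with parental HEK293 cells tested in parallel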
Sequence (Q15116 25-288 limits assumed): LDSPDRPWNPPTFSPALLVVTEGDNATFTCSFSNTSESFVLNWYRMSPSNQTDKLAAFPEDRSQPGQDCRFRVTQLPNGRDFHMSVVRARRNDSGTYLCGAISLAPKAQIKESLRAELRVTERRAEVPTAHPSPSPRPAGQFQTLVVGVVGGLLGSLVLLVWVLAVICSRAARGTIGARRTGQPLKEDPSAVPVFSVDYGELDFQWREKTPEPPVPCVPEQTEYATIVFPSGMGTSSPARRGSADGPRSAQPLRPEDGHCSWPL
Reply with the number and its unit after it.

| binder | MFI |
| --- | --- |
| H2aM7780N (antibody, V domains shown, human variable regions, mouse IgG2a Fc; also called H2M7780N) VH: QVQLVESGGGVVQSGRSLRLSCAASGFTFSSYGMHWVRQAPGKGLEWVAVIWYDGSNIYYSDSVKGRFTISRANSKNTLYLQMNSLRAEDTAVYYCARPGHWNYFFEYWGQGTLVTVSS VL: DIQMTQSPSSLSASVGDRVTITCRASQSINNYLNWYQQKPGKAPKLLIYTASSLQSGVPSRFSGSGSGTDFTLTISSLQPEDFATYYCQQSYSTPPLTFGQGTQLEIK | 23700 MFI |
| H1M7799N (antibody, V domains shown, human variable regions, mouse IgG1 Fc) VH: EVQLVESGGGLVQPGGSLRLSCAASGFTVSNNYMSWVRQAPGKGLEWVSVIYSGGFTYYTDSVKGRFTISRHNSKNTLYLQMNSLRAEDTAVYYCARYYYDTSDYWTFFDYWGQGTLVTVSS VL: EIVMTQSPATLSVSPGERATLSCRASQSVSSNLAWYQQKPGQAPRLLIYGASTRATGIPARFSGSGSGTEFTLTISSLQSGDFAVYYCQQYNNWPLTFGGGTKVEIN | 6860 MFI |
| H1M7800N (antibody, V domains shown, human variable regions, mouse IgG1 Fc) VH: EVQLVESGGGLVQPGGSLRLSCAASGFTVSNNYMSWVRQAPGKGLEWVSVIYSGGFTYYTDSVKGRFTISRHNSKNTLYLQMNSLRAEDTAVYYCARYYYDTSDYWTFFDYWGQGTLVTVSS VL: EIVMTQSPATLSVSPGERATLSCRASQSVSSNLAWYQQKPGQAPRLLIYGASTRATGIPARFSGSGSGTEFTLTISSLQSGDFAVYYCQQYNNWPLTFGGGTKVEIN | 6810 MFI |
| H1M7789N (antibody, V domains shown, human variable regions, mouse IgG1 Fc) VH: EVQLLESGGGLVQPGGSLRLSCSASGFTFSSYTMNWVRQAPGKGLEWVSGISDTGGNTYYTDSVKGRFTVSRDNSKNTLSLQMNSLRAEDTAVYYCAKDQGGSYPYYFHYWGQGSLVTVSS VL: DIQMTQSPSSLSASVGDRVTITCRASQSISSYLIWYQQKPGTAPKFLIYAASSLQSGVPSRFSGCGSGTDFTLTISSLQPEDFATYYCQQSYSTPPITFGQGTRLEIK | 24200 MFI |

Now for the binder whose MFI we want.
Entry H2aM7796N (antibody, V domains shown, human variable regions, mouse IgG2a Fc; also called H2M7796N) VH: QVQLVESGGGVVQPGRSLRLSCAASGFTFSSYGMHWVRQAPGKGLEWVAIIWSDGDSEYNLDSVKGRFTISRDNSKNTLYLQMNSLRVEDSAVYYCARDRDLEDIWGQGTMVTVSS VL: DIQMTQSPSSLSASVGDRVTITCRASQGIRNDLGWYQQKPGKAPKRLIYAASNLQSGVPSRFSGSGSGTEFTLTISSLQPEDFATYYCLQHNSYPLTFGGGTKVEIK : reported MFI = ? 49800 MFI
